- test.system: Tyrosyl-tRNA synthetase, putative (Trypanosoma cruzi (strain CL Brener)) (UniProt Q4DSP6)
- Sequence (whole entry): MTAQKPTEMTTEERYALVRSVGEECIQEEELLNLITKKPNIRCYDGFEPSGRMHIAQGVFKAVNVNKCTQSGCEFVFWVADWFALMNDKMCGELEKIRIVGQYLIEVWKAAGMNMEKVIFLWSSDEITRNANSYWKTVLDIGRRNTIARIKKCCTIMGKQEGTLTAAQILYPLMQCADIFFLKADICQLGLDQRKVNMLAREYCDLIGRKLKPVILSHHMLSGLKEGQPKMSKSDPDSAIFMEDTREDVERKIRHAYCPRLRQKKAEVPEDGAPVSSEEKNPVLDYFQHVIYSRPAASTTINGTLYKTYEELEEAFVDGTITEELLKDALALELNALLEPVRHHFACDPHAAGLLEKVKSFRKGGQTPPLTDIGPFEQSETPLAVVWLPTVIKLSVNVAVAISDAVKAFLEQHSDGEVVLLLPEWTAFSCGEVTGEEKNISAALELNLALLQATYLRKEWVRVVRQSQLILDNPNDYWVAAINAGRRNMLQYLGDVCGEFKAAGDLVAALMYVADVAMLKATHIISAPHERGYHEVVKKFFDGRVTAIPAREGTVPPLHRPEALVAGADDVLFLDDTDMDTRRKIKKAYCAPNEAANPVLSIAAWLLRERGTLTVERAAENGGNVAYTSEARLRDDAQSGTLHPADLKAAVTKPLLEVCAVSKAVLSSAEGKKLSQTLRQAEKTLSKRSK
- measurement.protocol: Trypanosoma cruzi tyrosyl tRNA synthetase (TcYRS) _High Tyrosine SOP; note: in the data most compounds retested in dose-response had high values
- Format: functional
- Parameters: scale not given: direction of the effect not stated beside the values
- study.conditions: 30 µM
Listed next: entries and their corresponding Percent Effect.
measure.name: Percent Effect (%)

1) CCNC(=O)NC(=O)CNC1(c2noc(C)n2)CCCCC1: 3.19
2) O=C([C@H]1C[C@H]2OCC[C@H]2N(Cc2cccnc2)C1)N1CCCO1: 13
3) NC(=O)CN1CCCN(C(=O)Cc2ccc(F)c(Br)c2)CC1: 4.74
4) COCc1cncc2c1CCN(Cc1ccccn1)C2: 14.8
5) Cc1nc(C)c(CC(=O)N2C[C@@H]3CC[C@H](C2)N(CC2CCC2)C3)c(=O)[nH]1: 4.3
6) CCC(O)CN1CCN(C(=O)Cc2cc(Cl)ccc2OC)CC1 (configuration not stated): 4.9
7) CCN(CCc1ccccc1)Cn1nc(C)c2c(C)onc2c1=O: 9.36
8) COCCN1CCC2(COCc3cnc(N4CCOCC4)nc32)C1 (configuration not stated): -4.25
9) c1cncc(OC[C@]23COC[C@H]2CN(Cc2cccs2)C3)c1: 6.93
10) O=C1CO[C@@H]2CN(Cc3cccs3)C[C@H]2N1Cc1ccncc1: 12.1
11) CN1CCC2(CC1)CNC(=O)c1ccccc1O2: 6.45
12) Cc1cc(CN2CC[C@H]3C[C@H](c4nccs4)O[C@@H]3C2)no1: 0

====

- test.system: Aspartate--tRNA(Asp/Asn) ligase (Mycobacterium tuberculosis (strain ATCC 25618 / H37Rv)) (UniProt P9WFW3); note: in the data most compounds retested in dose-response had high values
- Sequence (P9WFW3 whole entry): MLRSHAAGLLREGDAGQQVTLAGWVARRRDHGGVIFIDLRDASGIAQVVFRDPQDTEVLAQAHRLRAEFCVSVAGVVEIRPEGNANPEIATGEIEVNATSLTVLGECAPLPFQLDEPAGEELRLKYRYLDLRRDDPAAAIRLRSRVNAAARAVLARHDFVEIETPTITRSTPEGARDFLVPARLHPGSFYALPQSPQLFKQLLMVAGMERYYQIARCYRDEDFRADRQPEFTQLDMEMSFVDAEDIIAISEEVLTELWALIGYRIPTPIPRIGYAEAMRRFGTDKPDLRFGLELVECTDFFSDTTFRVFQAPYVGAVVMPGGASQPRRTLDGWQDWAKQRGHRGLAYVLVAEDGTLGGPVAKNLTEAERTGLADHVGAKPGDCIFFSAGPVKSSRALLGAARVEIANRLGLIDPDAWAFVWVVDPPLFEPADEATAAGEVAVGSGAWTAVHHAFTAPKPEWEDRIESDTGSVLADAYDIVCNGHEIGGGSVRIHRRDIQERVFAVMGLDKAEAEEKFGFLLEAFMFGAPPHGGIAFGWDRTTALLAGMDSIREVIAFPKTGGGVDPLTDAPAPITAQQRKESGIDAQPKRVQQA
- measurement.protocol: Assay for Asp RNA synthetase-1 from Mycobacterium tuberculosis
- Assay type: functional
- Parameters: scale not given: direction of the effect not stated beside the values
- study.conditions: 30 µM
Listed next: entries and their corresponding Percent Effect.
measure.name: Percent Effect (%)

1) CCc1nc(C)ncc1C(=O)N1CCCC(n2nc(C)nc2C)C1 (stereo unspecified): -3.03
2) Cc1cccc(N2CCN(C(=O)CN3CCN(CCO)CC3)CC2)c1: 1.98
3) Cc1ccc(C(=O)N2CCC(Oc3ccc(F)cc3F)CC2)c(=O)[nH]1: -4.97
4) COc1ccc2c(c1)CCN(CCC(=O)NC1CCCCC1)CC2: -0.993
5) COc1cccc2c1OCC(CNC(=O)CSc1nc(N)n[nH]1)C2 (stereo unspecified): 2.1
6) CCC(CC)C(CNC(=O)Nc1ccc(C)cc1)N1CCOCC1 (stereo unspecified): -1.91

====

- System: Trypanosoma cruzi
- measurement.protocol: Trypanosoma cruzi phosphomannomutase and mannose-1-phosphate guanylyltransferase assay
- Type: functional
- Design: scale not given: direction of the effect not stated beside the values
- study.conditions: 10 µM
measure.name: Percent Effect

1. O=C(Cc1c(F)cccc1F)N1CCN(CC(=O)N2CCCC2)CC1: -0.938%
2. c1ccc(CO[C@@H]2CO[C@@]3(CCN(Cc4ccccn4)C3)C2)nc1: -1.18%
3. Cn1cc(CN2C[C@@H]3[C@@H](C2)OCC(=O)N3Cc2ccncc2)cn1: 1.07%
4. Cc1cnc(N2CCCC3(CCCN(C)C3)C2)nc1 (stereo unspecified): 3.37%
5. Cc1nc(NCC2CC2)nc2c1COCC21CCN(C)C1 (stereo unspecified): 2.17%
6. CO[C@@H]1CC[C@H]2[C@H]1OCCN2CC1CCOCC1: 3.91%
7. Cc1c(CC(=O)N2CCN(CC(F)(F)F)CC2)nnn1-c1ccccc1: -2.65%
8. COCCO[C@@H]1C[C@H]2CN(C(=O)c3ccc(C)nc3)CCN2C1: -3.86%
9. COc1ccc(Cl)cc1CC(=O)N1CCN(CCO)CC1: -4.1%
10. CC(C)NC(=O)[C@H]1C[C@@H]2[C@@H](C1)OCCN2Cc1cccnc1: -4.25%
11. O=C(Cc1ccccn1)N1CCN2C[C@H](Oc3cccc(F)c3)C[C@H]2C1: 1.07%

====

- test.system: Shiga toxin 2 (Escherichia coli O157:H7) (UniProt P09385+P09386)
- measurement.protocol: E. coli 0.157:H7 Shiga Toxin SOP - stx2 screening assay
- Assay type: functional
- Set-up: scale not given: direction of the effect not stated beside the values
- study.conditions: 30 µM
Listed next: entries and their corresponding Percent Effect.
measure.name: Percent Effect (%)

1) CC(C)Nc1nc2c(cc1C(=O)NCC1CC1)CCNCC2: 2.86
2) CCNc1cc2c(nn1)CCN(C(=O)Cc1noc3ccccc13)C2: 24.9
3) O=C1CCc2cc(-c3csc(CCN4CCCC4=O)n3)ccc2N1: -10.4
4) Cn1cccc1C(=O)Nc1cc(F)ccc1OCC1CCCO1 (stereo unspecified): 22
5) CCC(=O)N1CCC(O)(c2ncc(OC)nc2OC)CC1: 16.1
6) c1ccc(-c2nc(CN3CCOC(Cn4cccn4)C3)no2)cc1 (stereo unspecified): 4.08
7) Cc1nc(NCCc2ccc(Cl)cc2)cc(C(=O)N2CCOCC2)n1: -64.7
8) CNC(=O)C1(c2cnccn2)CCCN1C(=O)c1ccccc1OC (stereo unspecified): -21.4
9) Cn1cnc2c1CCN(Cc1nc(COc3ccc(F)cc3)no1)C2: 19
10) COc1c(CNC2CCOc3ccccc32)c(C(C)C)nn1C (stereo unspecified): 2.37
11) Cn1cc(C(=O)N[C@@H]2CN(Cc3cccs3)[C@@H]3CCCO[C@@H]32)cn1: -2.87

====

- test.system: Aspartate--tRNA(Asp/Asn) ligase (Mycobacterium tuberculosis (strain ATCC 25618 / H37Rv)) (UniProt P9WFW3); note: in the data most compounds retested in dose-response had high values
- measurement.protocol: Assay for Asp RNA synthetase-1 from Mycobacterium tuberculosis
- Format: functional
- Design: scale not given: direction of the effect not stated beside the values
- study.conditions: 30 µM
measure.name: Percent Effect (%)

1) COc1cccc(-n2c(C)cc(C(=O)NS(C)(=O)=O)c2C)c1: -1.31
2) CCC1CN(CC(=O)Nc2sccc2C#N)CCO1 (configuration not stated): -2.46
3) O=c1[nH][nH]cc1-c1ccnc(NCCN2CCCC2)n1: 5.51
4) Cc1ccc(CN2CC(C(=O)Nc3ccccc3)C3(CCOCC3)C2)s1 (configuration not stated): 8.04
5) CCSCCC(=O)NS(=O)(=O)c1ccc2c(c1)OCCO2: -0.722
6) Cn1nc(CNC(=O)c2nc3ccccc3s2)c2c1CCOC2: -0.335
7) CNC(=O)NC(=O)CN1CCC(c2cccc(F)c2)C1 (configuration not stated): -0.433
8) COc1cccc(-n2nnc(C(=O)N3CCNC(=O)C3)c2C)c1: -6.06
9) Cc1nn(C)cc1CCC(=O)N1CCCC(n2cncn2)C1 (configuration not stated): -2.1
10) OC(COc1ccccc1)CN1CCC(c2ccn[nH]2)CC1 (configuration not stated): -0.6
11) Cc1ncc(-c2ccnc(N3CCCCC3)n2)c(=O)[nH]1: -2.84
12) O=C(CCNC(=O)C1CCCC1)NCc1ccccc1Cn1cncn1: 2.64

====

- test.system: Shiga toxin 2 (Escherichia coli O157:H7) (UniProt P09385+P09386)
- measurement.protocol: E. coli 0.157:H7 Shiga Toxin SOP - stx2 screening assay
- Assay type: functional
- Parameters: scale not given: direction of the effect not stated beside the values
- study.conditions: 30 µM
Listed next: entries and their corresponding Percent Effect.
measure.name: Percent Effect (%)

1) Cc1ccc(NC(=O)NCCCc2n[nH]c(N)c2C#N)cc1: -18.4
2) O=C(O)c1cc(NS(=O)(=O)c2cccc(Cl)c2F)ccc1Cl: 20.1
3) CCOc1nnc(CN(C)C2CCCN(c3cccnn3)C2)s1 (centres undefined): -25.9
4) O=C(COC[C@H]1CC[C@H]2[C@H](CCN2c2ncccn2)O1)N1CCCC1: -24.1
5) Cc1csc(N2CCCN(C(=O)C(C(C)C)n3cncn3)CC2)n1 (centres undefined): 15.4
6) O=C(CCn1cccn1)N1CCN(CC(F)F)CC1: 15.4
7) Cc1nn(C)c(N2CCOCC2)c1CNC(C)c1ccco1 (centres undefined): 5.98
8) CN(C)c1ccc(CNc2cncc(-n3cccn3)n2)cc1: -28
9) CNc1nc2c(s1)C(c1c(Cl)cccc1Cl)CC(=O)N2 (centres undefined): 5.63
10) CS(=O)(=O)N1CCOC2(CCCN(c3cnccn3)C2)C1 (centres undefined): -3.98
11) Cc1noc(C2CCC3(CCN(C(=O)c4c(C)noc4C)CC3)O2)n1 (centres undefined): 16.1
12) CN1CCC/C1=N\S(=O)(=O)c1ccc(NC(=O)c2ccc(F)cc2)cc1: -109
13) CCNC(=O)N1CCC2(C1)c1ccccc1S(=O)(=O)N2CCC(C)C (centres undefined): -1.22
14) NC(=O)C1CN(C(=O)Nc2ccccc2N2CCCCCC2)CCO1 (centres undefined): 7.25
15) O=C(c1ccco1)N1C[C@@H]2OCCN(CCN3CCCC3)[C@@H]2C1: -2.25
16) Cc1cnn(CC2CCCN2Cc2nc3ccccc3n2C)c1 (centres undefined): -9.07
17) COc1c(CNCc2cccc(CN(C)C)c2)c(C)nn1C: 13.1
18) CNS(=O)(=O)c1cccc(CNC(=O)c2c(C)oc(C)c2C)c1: -67.3
19) CCn1ccnc1CN1CCN(Cc2ccccn2)CC1C (centres undefined): -13.6
20) Cc1cccc(CNC2CCCc3c2cnn3C)c1 (centres undefined): -9.23
21) CC(O)CN1CCN(C(=O)c2ccc3c(c2)COC3)CC1 (centres undefined): -19.4
22) CCCNC(=O)CN1CCN(Cc2csc(C(C)(C)C)n2)CC1: 11.1
23) O=C(NCC(O)CN1CCc2ccccc2C1)Nc1cccnc1 (centres undefined): -22.8
24) CC(C)c1ncc2c(n1)CN(Cc1ccc(C(N)=O)cc1)CC2: -42.6
